TGT: P. falciparum apicoplast DNA polymerase (Pf-apPOL) (Plasmodium falciparum, UniProt Q8ILY1)
Sequence (Q8ILY1 entry or part of it): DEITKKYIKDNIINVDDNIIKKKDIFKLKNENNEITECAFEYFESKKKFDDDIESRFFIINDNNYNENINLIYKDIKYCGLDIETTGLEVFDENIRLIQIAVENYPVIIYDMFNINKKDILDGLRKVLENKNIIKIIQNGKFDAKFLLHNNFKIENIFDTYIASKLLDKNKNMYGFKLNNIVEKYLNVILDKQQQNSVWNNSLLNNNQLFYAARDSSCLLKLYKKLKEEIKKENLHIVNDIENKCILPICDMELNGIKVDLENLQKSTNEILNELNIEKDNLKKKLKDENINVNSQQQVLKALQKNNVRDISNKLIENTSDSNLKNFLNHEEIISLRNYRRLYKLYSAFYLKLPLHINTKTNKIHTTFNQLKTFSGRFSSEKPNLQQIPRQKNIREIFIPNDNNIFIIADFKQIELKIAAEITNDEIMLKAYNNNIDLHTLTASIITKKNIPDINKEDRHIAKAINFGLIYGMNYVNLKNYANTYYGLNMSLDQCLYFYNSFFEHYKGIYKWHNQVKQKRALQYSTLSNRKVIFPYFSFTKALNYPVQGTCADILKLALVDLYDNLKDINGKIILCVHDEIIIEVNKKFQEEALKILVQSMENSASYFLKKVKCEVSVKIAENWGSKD
PROCEDURE_DETAILS: Fluorescence-based high-throughput DNA polymerase assay (molecular beacon), primary screen and dose-response;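 as to % inhibition Apol 40': compound concentration given in µM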
Assay type: biochemical
EXPERIMENTAL_PARAMETERS: DRC-2; 40'; concentration 80
MEASURE: % inhibition Apol 40' (%)
Dear colleague, please return just the value in %, with no unit written.

Measured % inhibition Apol 40' (P. falciparum apicoplast DNA polymerase (Pf-apPOL) (Plasmodium falciparum, UniProt Q8ILY1)), entry Cc1ccc(NC(=O)C2CCN(C(=O)c3cc4ccsc4[nH]3)CC2)c(Br)c1 : 67

Measured % inhibition Apol 40' (P. falciparum apicoplast DNA polymerase (Pf-apPOL) (Plasmodium falciparum, UniProt Q8ILY1)), entry OC(C#Cc1ccccc1)c1ccco1 (stereo not shown) : 48

Measured % inhibition Apol 40' (P. falciparum apicoplast DNA polymerase (Pf-apPOL) (Plasmodium falciparum, UniProt Q8ILY1)), entry O=C(NC(C(Cl)Cl)S(=O)(=O)c1ccccc1)c1ccccc1 (stereo not shown) : 62

Measured % inhibition Apol 40' (P. falciparum apicoplast DNA polymerase (Pf-apPOL) (Plasmodium falciparum, UniProt Q8ILY1)), entry O=C(O)c1ccc(-c2nc3cc(-c4ccc5nc(-c6ccc(C(=O)O)cc6)[nH]c5c4)ccc3[nH]2)cc1 : 32

---

TGT: P. falciparum apicoplast DNA polymerase (Pf-apPOL) (Plasmodium falciparum)
PROCEDURE_DETAILS: Fluorescence-based high-throughput DNA polymerase assay (molecular beacon), primary screen and dose-response
Assay type: biochemical
EXPERIMENTAL_PARAMETERS: DRC-2; 5'; concentration 2.5
MEASURE: % inhibition Apo pol 5' (%)
Dear colleague, please return just the value in %, with no unit written.

The compound CN(C)C1C(c2ccccc2)=C(c2ccccc2)SC(c2ccccc2)C1[N+](=O)[O-] (stereo not shown) showed % inhibition Apo pol 5' equal to 0.589

The compound O=[N+]([O-])c1ccc(/C=C/c2ccc3ccccc3n2)o1 showed % inhibition Apo pol 5' equal to 37

The compound Cc1ccc(C)c(CSc2nc(C3CCCCC3)c(C#N)c(=O)[nH]2)c1 showed % inhibition Apo pol 5' equal to 9

The compound Oc1cccc2ccc(/C=C/c3ccc4c(c3)OCO4)nc12 showed % inhibition Apo pol 5' equal to 14

---

TGT: P. falciparum apicoplast DNA polymerase (Pf-apPOL) (Plasmodium falciparum)
PROCEDURE_DETAILS: Fluorescence-based high-throughput DNA polymerase assay (molecular beacon), primary screen and dose-response
Assay type: biochemical
EXPERIMENTAL_PARAMETERS: DRC-2; concentration 10; 90'
If the reported % inhibition ApPOL 90' equals or exceeds 50%, assign label 1. If not, assign label 0.

// query Please indicate if the recorded % inhibition ApPOL 90' for CCCN1COc2ccc3c(=O)c(-c4ccccc4)coc3c2C1 meets or exceeds 50%.
// result label 0

// query Please indicate if the recorded % inhibition ApPOL 90' for Cc1ccc(C2=N/C(=C\c3ccc(I)o3)C(=O)O2)cc1[N+](=O)[O-] meets or exceeds 50%.
// result label 0

// query Please indicate if the recorded % inhibition ApPOL 90' for O=C(Cn1ccc2c(=O)[nH]ccc21)Nc1ccccc1Cl [Molecule 19, O=C(Cn1ccc2c1cc[nH]c2=O)Nc1ccccc1Cl] meets or exceeds 50%.
// result label 1

// query Please indicate if the recorded % inhibition ApPOL 90' for COc1ccc(NC(=O)Cn2nc3c(cc2=O)CCC3)cc1Cl meets or exceeds 50%.
// result label 1

// query Please indicate if the recorded % inhibition ApPOL 90' for Cc1cc(C)nc(Nc2nc(CC(=O)Nc3nc(-c4ccco4)cs3)cs2)n1 meets or exceeds 50%.
// result label 0

// query Please indicate if the recorded % inhibition ApPOL 90' for O=C1c2ccccc2C(=O)c2c1oc1c3c(ccc21)OCN(C1CCCC1)C3 meets or exceeds 50%.
// result label 0

// query Please indicate if the recorded % inhibition ApPOL 90' for COc1ccc(C=C2Oc3c(ccc4c3CN(Cc3ccco3)CO4)C2=O)c(OC)c1 meets or exceeds 50%.
// result label 0
